Tested on: PC-3
Assay: NCI tumour cell line growth inhibition, 48 h
Activity calls are given as the source filed them. Cut-off read from the data, not from the text of the source: active = GI50 up to about 1.1 µM and inactive = higher.
Outcome field: choose from YES for active, NO for inactive

Hello, I am checking results. What call was entered for COC12C=CC(CC1)C(C)(C)C2OS(C)(=O)=O (centres undefined) ?
NO

Hello, I am checking results. What call was entered for "CC(C)Nc1[nH]c(C(=O)c2ccccc2)c(N)c1C(=S)Nc1ccccc1" ?
NO

Hello, I am checking results. What call was entered for Clc1ccccc1-c1nc(-c2ccncc2)no1 [PIFEXOLE] ?
NO

Hello, I am checking results. What call was entered for CC1(C)O[C@H]2OC3CCC(=O)CC3(O)[C@H]2O1 (some centres undefined) ?
NO

Hello, I am checking results. What call was entered for O=C(O)c1cccc(S(=O)(=O)NN2C(=O)CSC2c2ccccc2Cl)c1 (centres undefined) ?
NO

Hello, I am checking results. What call was entered for "C[Si](C)(C)C1=C([Si](C)(C)C)C(Cl)(Cl)C1=O" ?
NO

Hello, I am checking results. What call was entered for "CN(C)CCCn1c2ccccc2c2cnccc21" ?
NO

Hello, I am checking results. What call was entered for "CCOC(=O)c1cc2c3c(c(C(C)=O)c(OC)c2[nH]1)N(C(=O)CC)CC3" ?
NO

Hello, I am checking results. What call was entered for "O=C(NCCc1ccccc1)c1c(O)nc2ccccc2c1O" ?
NO

Hello, I am checking results. What call was entered for "S=C(Nc1ccccn1)Nc1ccccc1Cl" ?
NO

Hello, I am checking results. What call was entered for "COc1ccc(N2C(=O)C(=O)C3(CCCCC3)C2=O)c2ccccc12" ?
NO

Hello, I am checking results. What call was entered for CC(=O)NC1C(OCC(=O)NC(C)C(=O)NC(CCC(=O)NCCCCCNc2ccc([N+](=O)[O-])c3[nH]c4ccccc4c(=O)c23)C(N)=O)C(O)C(CO)OC1(C)OCc1ccccc1 (centres undefined) ?
NO

Hello, I am checking results. What call was entered for "O=C(O)CCSc1nnc(COc2ccc(Cl)cc2)n1-c1ccccc1" ?
NO

Hello, I am checking results. What call was entered for "COc1ccc(C2=Nn3c(nnc(Cc4ccc(Cl)cc4)c3=O)SC2)cc1" ?
NO

Hello, I am checking results. What call was entered for COC(=O)[C@]1(C)[C@H]2C[C@H]3O[C@H]4[C@H](O)[C@@H](O)OC(CC(O)C(C5=CC(=O)OC5)C(C5=CC(=O)OC5)C(O)CC56CCCCC7[C@@H](C)[C@H](C[C@H]8[C@](C)(C(=O)OC)[C@H](O)CC[C@]78C)O[C@H]([C@@H](O)[C@H](O)O5)[C@H]6O)(CCCCC([C@@H]3C)[C@]2(C)CC[C@@H]1O)[C@H]4O (some centres undefined) ?
YES

Hello, I am checking results. What call was entered for CC(C)C1C(=O)N2CCCC2C2(O)OC(NC(=O)C3C=C4c5cccc6[nH]cc(c56)CC4N(C)C3)(C(C)C)C(=O)N12 (centres undefined) ?
NO

Hello, I am checking results. What call was entered for "COC(=O)C1=C(C)NC(C)=C(C(=O)OC)C1c1ccc(NO)cc1" ?
NO

Hello, I am checking results. What call was entered for "COC(=O)CCc1ccc2c(c1)CC1(C2)Cc2ccc(CCC(=O)OC)cc2C1" ?
NO

Hello, I am checking results. What call was entered for "CCOc1ccc(/N=N/S(=O)(=O)O)cc1" ?
NO

Hello, I am checking results. What call was entered for O=S(=O)(/N=S(/Nc1ccccc1)C(Cl)Cl)c1ccccc1 (centres undefined) ?
NO

Hello, I am checking results. What call was entered for "Oc1ccc(Br)cc1/C=N/C1CCCCC1" ?
NO

Hello, I am checking results. What call was entered for CC(C)OC(=O)C(NC(=O)C(CC(=O)OCc1ccccc1)NC(=O)OCc1ccccc1)NC(=O)C1C(C)(C)CCC1(C)C (centres undefined) ?
NO

Hello, I am checking results. What call was entered for "O=c1oc2ccccc2cc1-c1nc2ccc([N+](=O)[O-])cc2o1" ?
NO

Hello, I am checking results. What call was entered for COc1ccccc1/C=C1\CCC(CN2CCOCC2)C1=O (centres undefined) ?
NO

Hello, I am checking results. What call was entered for COc1cc(CC2CCc3nc(N)nc(N)c3C2)cc(OC)c1OC (centres undefined) ?
YES

Hello, I am checking results. What call was entered for COc1cc2ccc(C(C)NCC#N)cc2cc1OC (centres undefined) ?
NO

Hello, I am checking results. What call was entered for COC(CNC(=O)C(C)NC(=O)CCc1ccccc1)OC (centres undefined) ?
NO

Hello, I am checking results. What call was entered for "COC(c1ccc(C(C)(C)C)cc1)(c1ccc(C(C)(C)C)cc1)c1ccc(C(C)(C)C)cc1" ?
NO

Hello, I am checking results. What call was entered for "O=C(/C(=N/Nc1cn[nH]c(=O)c1Cl)c1ccccc1)c1ccccc1" ?
NO

Hello, I am checking results. What call was entered for CCOC(=O)C1(CC(=O)O)CCCC1=O (centres undefined) ?
NO

Hello, I am checking results. What call was entered for "CSCCCNC(=O)c1csc(-c2csc(CCNC(=O)CNC(=O)CNC(=O)OC(C)(C)C)n2)n1" ?
NO

Hello, I am checking results. What call was entered for Clc1cc2nc(C3CCCCO3)[nH]c2cc1Cl (centres undefined) ?
NO

Hello, I am checking results. What call was entered for "CN(c1ccccc1Cl)S(=O)(=O)c1ccc([N+](=O)[O-])cc1" ?
NO

Hello, I am checking results. What call was entered for CCCC(=O)OCC1OC(n2cc(F)c(=O)[nH]c2=O)CC1OC(=O)CCC (centres undefined) ?
NO

Hello, I am checking results. What call was entered for "CN(C)CCNc1ccc(NCC[N+](C)(C)Cc2ccc([N+](=O)[O-])cc2)c2c1C(=O)c1ccccc1C2=O" ?
NO

Hello, I am checking results. What call was entered for "O=c1c(/C=C/c2c(O)ccc3ccccc23)nnc2sc(-c3cccc([N+](=O)[O-])c3)nn12" ?
NO

Hello, I am checking results. What call was entered for "CSc1nc(=O)c2nc(-c3cccs3)c(-c3cccs3)nc2n1C" ?
NO

Hello, I am checking results. What call was entered for CC(=O)OCC1OC(n2nc(Cc3ccccc3)c(=S)[nH]c2=S)C(OC(C)=O)C(OC(C)=O)C1OC(C)=O (centres undefined) ?
NO

Hello, I am checking results. What call was entered for "COC(=O)c1ccccc1/C=C1\Cc2c(ccc3c2CCC3)C1=O" ?
NO
